Method: Fraction unbound in Beagle dog brain homogenates at 1 uM after 6 hrs by equilibrium dialysis method
Condition Summary: brain homogenate
Label criterion met when fraction unbound at 6 h, 1 µM < 0.01; otherwise criterion not met.

# count of solved cases: 4
{"Molecule": "CCCc1nc2c(C)cc(-c3nc4ccccc4n3C)cc2n1Cc1ccc(-c2ccccc2C(=O)O)cc1", "Discrete Label": "criterion not met"}
{"Molecule": "Cc1nc2n(c(=O)c1CCN1CCC(c3noc4cc(F)ccc34)CC1)CCCC2O (configuration not stated)", "Discrete Label": "criterion not met"}
{"Molecule": "CN(C)CCCC1(c2ccc(F)cc2)OCc2cc(C#N)ccc21 (configuration not stated)", "Discrete Label": "criterion not met"}
{"Molecule": "CCN(C)C(=O)Oc1cccc([C@H](C)N(C)C)c1", "Discrete Label": "criterion not met"}

Prompt: Find out if reported fraction unbound at 6 h, 1 µM for Cc1ccc(C(=O)c2cc(O)c(O)c([N+](=O)[O-])c2)cc1 is less than 0.01
Completion: criterion not met

Prompt: Find out if reported fraction unbound at 6 h, 1 µM for CC(NC(C)(C)C)C(=O)c1cccc(Cl)c1 (configuration not stated) is less than 0.01
Completion: criterion not met

Prompt: Find out if reported fraction unbound at 6 h, 1 µM for NC1CCN(c2c(F)cc3c(=O)c(C(=O)O)cn(C4CC4)c3c2Cl)C1 (configuration not stated) is less than 0.01
Completion: criterion not met

Prompt: Find out if reported fraction unbound at 6 h, 1 µM for CC(=O)CC(c1ccccc1)c1c(O)c2ccccc2oc1=O (configuration not stated) is less than 0.01
Completion: criterion not met

Prompt: Find out if reported fraction unbound at 6 h, 1 µM for CCN(CC)CCNC(=O)c1cc(Cl)c(N)cc1OC [METOCLOPRAMIDE] is less than 0.01
Completion: criterion not met

Recorded values, source ChEMBL document CHEMBL3525956.
